test: yeast display, Sf9 membrane polyspecificity reagent, FACS + sequencing; frameworks hold sequencing errors
observed property: polyreactivity (PSR sort gate)

Worked cases, answers included:
biosequence | observed property | reading
QVQLVESGGGLVQAGGSLRLSCAASGRTFRYYTMGWYRQAPGKEREFVAAISSTGGTYYADSVKGRFTISRDNAKNTVYFQMNSLKPEDTAVYYCAAYRWGILSAYYYAWYGYWGQGTQVTVSS | polyreactivity (PSR sort gate) | low polyreactivity
QDQLVESGGGLVQAGGSLRLSCDASGYIFQSNVLGWYRQAPGKERELVAAITVSGGSTYYADSVKGRFTISRDNAKNTVYLQMNSLKPEDTAVYYCAALVAHKGDYWGQGTQVTVSS | polyreactivity (PSR sort gate) | high polyreactivity
QVQLVESGGGLVQAGGSLRLSCDASGGTFYVNHMAWYRPAPWKERELVATITYSGTSTYYADSVKGRFTISRDNAKNTVYLQMNSLKPEDTAVYYCATDVLLYFEPVNLDYWGQGTQVTVSS | polyreactivity (PSR sort gate) | low polyreactivity
QVQIGQSGGGLVQAGGSLRLSCAASGRIIWSNAMGWNRQAPGKERELVAAIRNTGSTNYADSVKGRFTISRDNAKNTVYLQMNSLKPEDTEVYYCAADRATYCTYAYGYWGQGTQVTVSS | polyreactivity (PSR sort gate) | high polyreactivity

Next sequence, please.
Exercise: Requested read-out: polyreactivity (PSR sort gate). Entry: QVQLVESGGGLVQAGGSLRLSCAASGITFDYYGMGWYRQAPGKEGELVASITSGGSTNYADSVNGRFTISRDNAKNTVYLQMNSLKPEDTAVYYCNAEFWEVSPDRRDYDYWGQGTQVTVSS
Key: low polyreactivity
